# Test system: Fibrinogen (Alexa647-labelled)
# procedure details: fibrinogen binders on compound microarrays, profiling panel, artefact control for SMM control-protein annotation, biochemical, small-molecule microarray, 635/667 nm fluorescence (AID 1131);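 further: z-score merges 667 nm fluorescence with per-spot signal-to-noise over triplicate slides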
# condition context: fibrinogen-A647 binding fluorescence, higher = more signal
Given measured composite z-score, output y if it is greater than or equal to 0.8 and n if not.

State whether the measured composite z-score reaches 0.8, counting equality as reaching it, for [N-]=[N+]=NCc1ccccc1C[C@@]1(C(=O)N2CCOCC2)N=C(c2ccc(OCCCO)cc2)O[C@@H]1c1ccccc1CN=[N+]=[N-]
y

Likewise for O=C1O[C@H](c2ccccc2)[C@H](c2ccccc2)N2[C@H]1[C@@H](C(=O)Nc1nc3ccccc3s1)[C@]1(C(=O)Nc3ccccc31)[C@H]2c1ccc(O)cc1 ?
y

Next entry: COC(=O)C(CC#Cc1ccc2c(c1)[C@]1(C(=O)N2)[C@H](c2ccc(OCCO)cc2)N2[C@H](c3ccccc3)[C@H](c3ccccc3)OC(=O)[C@H]2[C@@H]1C(=O)NC[C@H](O)c1ccccc1)C(=O)OC
y

Now the molecule CC(c1ccccc1)C(O)C1C=CC2C(=O)NC(=O)C2N1Nc1ccccn1 (configuration not stated)
n

Can you handle Cc1ccc(F)cc1S(=O)(=O)N[C@@H]1CCN(Cc2ccc(-c3ccccc3)cc2)C1 next?
n

How about this molecule: O=C(O)[C@H]1C[C@H]2C(=O)NCC(=O)N2[C@H]1c1ccc(O)cc1
n

Now consider [N-]=[N+]=NCc1ccccc1C[C@@]1(C(=O)NCC(O)CO)N=C(c2ccc(OCCCO)cc2)O[C@@H]1c1ccccc1CN=[N+]=[N-] (some centres not stated) and answer again.
y

* * *

# tested system: Torsin-1A (Homo sapiens) (UniProt O14656)
# Sequence (O14656 whole entry, looked up): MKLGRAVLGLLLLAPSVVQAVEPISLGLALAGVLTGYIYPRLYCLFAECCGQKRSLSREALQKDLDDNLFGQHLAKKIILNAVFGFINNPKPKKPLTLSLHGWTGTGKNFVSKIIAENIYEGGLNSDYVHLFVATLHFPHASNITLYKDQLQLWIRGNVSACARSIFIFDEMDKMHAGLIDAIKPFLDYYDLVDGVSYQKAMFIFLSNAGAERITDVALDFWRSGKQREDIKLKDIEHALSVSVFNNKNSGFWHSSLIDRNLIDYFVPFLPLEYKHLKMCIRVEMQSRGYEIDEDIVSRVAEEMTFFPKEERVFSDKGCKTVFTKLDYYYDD
# procedure details: torsin A binders from cell lysate, primary screen, small-molecule microarray, wild-type, 635/667 nm (AID 1149)
# condition context: COS7 hTOR1A-WT lysate, 635 nm fluorescence, higher = more signal
Label yes (1) when composite z-score >= 0.5; otherwise no (0).

Please indicate if the recorded composite z-score for CC(C)=CCCC(C)=CC(O)C1C=CC2C(=O)N(c3ccccc3)C(=O)C2N1Nc1ccccc1 (centres undefined) meets or exceeds 0.5.
no (0)

Cool, now O=C1O[C@@H](c2ccccc2)[C@@H](c2ccccc2)N2[C@@H](c3ccc(O)cc3)[C@]3(C(=O)Nc4ccc(C#CC5(O)CCCCCC5)cc43)[C@@H](C(=O)N3CCCCCCC3)[C@H]12
yes (1)

// next record O=C(O)[C@H]1C[C@H]2C(=O)NCC(=O)N2[C@H]1c1ccc(O)cc1
yes (1)

Next record, please: Cc1ccccc1C(O)C1C=CC2C(=O)N(C)C(=O)C2N1N1CCCCC1 (centres undefined)
yes (1)

Another compound to check: CCOC(=O)[C@H]1C/C=C/C[C@H](C(=O)OCC)C(=O)O[C@H]2[C@@H](OC)O[C@H](CO)[C@@H](OC(=O)Nc3ccc4c(c3)OCO4)[C@@H]2OC1=O
yes (1)

Same read-out for COCCOC(=O)N1C(=O)[C@@]2(c3cc(C#CCC(C(=O)OC)C(=O)OC)ccc31)[C@H](c1ccccc1OCCO)N1[C@H](c3ccccc3)[C@H](c3ccccc3)OC(=O)[C@H]1[C@@H]2C(N)=O ?
no (0)

Quick one: CC(C)N1C(=O)C[C@@](C(=O)NCc2ccccc2)(c2ccc([N+](=O)[O-])cc2)[C@H]1c1ccc(CO)cc1
yes (1)

Then this compound: CN(C)C(=O)[C@]1(CCC(=O)OC(C)(C)C)N=C(c2ccc(OCCCO)cc2)O[C@@H]1c1ccccc1N=[N+]=[N-]
yes (1)

Repeat with COCCOC(=O)N1C(=O)[C@@]2(c3cc(C#Cc4ccc(OC)cc4)ccc31)[C@H](C(=O)N1CCN(c3ncccn3)CC1)[C@H]1C(=O)O[C@H](c3ccccc3)[C@H](c3ccccc3)N1[C@@H]2c1ccc(O)cc1
yes (1)

Repeat for the following compound: COCCCNC(=O)[C@@]1(C)c2ccccc2C(=O)N(Cc2cc(C(F)(F)F)cc(C(F)(F)F)c2)[C@H]1c1ccc(CO)cc1
no (0)

Now give it for C=CCNC(=O)[C@@H]1[C@H]2C(=O)O[C@H](c3ccccc3)[C@H](c3ccccc3)N2[C@H](c2ccc(O)cc2)[C@@]12C(=O)N(C(=O)OCCOC)c1ccccc12 too.
yes (1)

Lookup CC(C)N1C(=O)c2ccccc2[C@@H](C(=O)NCCCN(C)C)[C@@H]1c1ccc(CO)cc1
no (0)

Follow-up item: CN(C)CCCCNC(=O)[C@H]1C[C@H]2C(=O)N[C@@H](Cc3ccccc3)C(=O)N2[C@H]1c1ccc(O)cc1
yes (1)

* * *

# tested system: Neurogenic locus notch homolog protein 2 (Homo sapiens)
# procedure details: Notch2 binders on small-molecule microarrays, primary screen, biochemical, small-molecule microarray, 635 nm fluorescence, stem cell growth factors (AID 1073)
# condition context: Notch2 binding, higher = more signal
So basically, the class depends on measured composite z-score, and the ranges are lo (below 0.08), med (0.08 to below 0.6), hi (0.6 or more)

Kindly identify the class of Cc1ccc(S[C@]2(C(=O)NCC(C)C)CC(=O)N(Cc3ccccc3)[C@@H]2c2ccc(CO)cc2I)cc1 .
med

Again, but for CC(C)(C)N1CC=CC23O[C@@H]4/C=C\CCCOC(=O)C4[C@H]2C(=O)N(CCO)[C@@H]3C1=O (some centres undefined)
lo

Would you mind doing O=C1C2C=CC(C(O)c3ccc(-c4ccccc4)s3)N(n3cnnc3)C2C(=O)N1Cc1ccccc1 (centres undefined) as well?
med

Ok, now COCCOC(=O)N1C(=O)[C@@]2(c3cc(C#Cc4ccc(OC)cc4)ccc31)[C@H](C(=O)N1CCN(c3ncccn3)CC1)[C@H]1C(=O)O[C@H](c3ccccc3)[C@H](c3ccccc3)N1[C@@H]2c1ccc(O)cc1
lo

Now consider CCCCCN1CC=CC23O[C@@H]4/C=C\CCCOC(=O)C4[C@H]2C(=O)N(CCCCCCO)[C@@H]3C1=O (some centres undefined) .
lo

And what about the compound COC(=O)c1ccc(C(O)C2C=CC3C(=O)N(C)C(=O)C3N2NC(=O)OC(C)(C)C)o1 (centres undefined) ?
hi

And for CCCC[C@@H]1C[C@H]1[C@@H](NC(=O)c1ccc(-c2ccccc2)cc1)c1ccc(-c2ccccc2)cc1 ?
med

Same lookup for CN(C)C(=O)[C@@]1(CCC(=O)OC(C)(C)C)N=C(c2ccc(OCCCO)cc2)O[C@H]1c1ccccc1 , please.
lo

Likewise for COc1ccc(C#Cc2ccc3c(c2)[C@]2(C(=O)N3)[C@H](C(=O)NC[C@H](O)c3ccccc3)[C@H]3C(=O)O[C@H](c4ccccc4)[C@H](c4ccccc4)N3[C@@H]2c2ccc(OCCO)cc2)cc1 ?
hi

Please answer likewise for COCCOC(=O)N1C(=O)[C@@]2(c3cc(C#CCNC(N)=O)ccc31)[C@H](C(=O)N1CCN(c3ncccn3)CC1)[C@H]1C(=O)O[C@H](c3ccccc3)[C@H](c3ccccc3)N1[C@@H]2c1ccccc1OCCO
hi

Also check COCCOC(=O)N1C(=O)[C@@]2(c3cc(C#CCNC(N)=O)ccc31)[C@H](c1ccc(OCCO)cc1)N1[C@H](c3ccccc3)[C@H](c3ccccc3)OC(=O)[C@H]1[C@@H]2C(=O)N1CCc2cc(OC)c(OC)cc2C1
hi

Follow-up entry: CC(=CC1CCCCC1)[C@@H](NC(=O)c1ccc(C(F)(F)F)cc1)c1ccc(-c2ccccc2)cc1
med

// next record COc1cc(CO)ccc1OC(C)=O
med

* * *

# procedure details: A549 cell viability effects, profiling panel, calcein-AM fluorescence, 48 h, basal (AID 1162); further: test concentration not given here
# condition context: higher = more signal
Provide the reported z-score of each item.
Lab note: record the figure alone, no unit after it.

I am curious: what z-score value has been reported for O=C1O[C@H](c2ccccc2)[C@H](c2ccccc2)N2[C@H]1[C@@H](C(=O)NC[C@H](O)c1ccccc1)[C@]1(C(=O)Nc3ccc(C#CCCO)cc31)[C@H]2c1ccc(O)cc1 ?
0.102

Next entry: CCCN1C(=O)[C@]2(COC(c3ccc(OCCCO)cc3)=N2)Cc2ccccc21
-0.78

What about this molecule? C=CCOC(=O)[C@H]1[C@@H]2C(=O)O[C@@H](c3ccccc3)[C@@H](c3ccccc3)N2[C@@H](c2ccc(OCCOC(=O)[C@@H]3C[C@@H]4C(=O)NCC(=O)N4[C@@H]3c3ccc(O)cc3)cc2)[C@]12C(=O)Nc1ccccc12
0.422

Same for O=C1OCCC=C[C@H]2OC34C=CCN(Cc5ccccc5)C(=O)[C@H]3N(CCCCCO)C(=O)[C@@H]4C12 (stereo not given in full)
0.412

Another molecule to look at: C=CCOC(=O)[C@@H]1[C@H]2C(=O)O[C@H](c3ccccc3)[C@H](c3ccccc3)N2[C@H](c2ccc(OCCOC(=O)[C@@H]3C[C@@H]4C(=O)N[C@@H](Cc5ccccc5)C(=O)N4[C@@H]3c3cccc(OCCO)c3)cc2)[C@@]12C(=O)Nc1ccc(I)cc12
-1.15
